System: ATP;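 further: ATP exposure 15 min at 22 °C before imaging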
Assay: switch fluorescence ratio, 500 uM ATP over buffer (Cy3 cluster intensity, sum of 5 cycles each) (fold (ratio)); higher = stronger signal-on switching upon ATP binding; sequences stand for … in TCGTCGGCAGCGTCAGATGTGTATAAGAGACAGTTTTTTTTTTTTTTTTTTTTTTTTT…TC
Details: aptamer strand: ATP DNA aptamer (quencher-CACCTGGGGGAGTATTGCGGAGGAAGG + anchor), 100 nM annealed; ATP concentration: 500 uM
Please go through the items and note down their switch fluorescence ratio.
Provide a numeric answer; units are not to be included.

Req: Requested field: switch fluorescence ratio. Item: `GGTGTATAGG`
Resp: 1.01

Req: // lookup switch fluorescence ratio for `TCGGCTCTTG`
Resp: 1.01

Req: I am curious: what switch fluorescence ratio value has been reported for `CTGGGTCTGA` ?
Resp: 1.02

Req: Give the measured switch fluorescence ratio of `TAAAGGTATG` .
Resp: 1.02

Req: Requested field: switch fluorescence ratio. Item: `GGGAATTTGT`
Resp: 0.994

* * *

I'd be grateful if you could share measured switch fluorescence ratio for these entries.
Test system: ATP;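 further: ATP exposure 15 min at 22 °C before imaging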
Assay: switch fluorescence ratio, 500 uM ATP over buffer (Cy3 cluster intensity, sum of 5 cycles each) (fold (ratio)); higher = stronger signal-on switching upon ATP binding; sequences stand for … in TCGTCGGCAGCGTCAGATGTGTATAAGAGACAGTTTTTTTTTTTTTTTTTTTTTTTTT…TC
Conditions: aptamer strand: ATP DNA aptamer (quencher-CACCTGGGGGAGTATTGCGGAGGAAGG + anchor), 100 nM annealed; ATP concentration: 500 uM
Form rule: numeric answer, no unit written next to it.

Req: Look up switch fluorescence ratio with ATP for this sequence: `ACATTAAAAA`
Resp: 1.26

Req: Record lookup: for ATP, what switch fluorescence ratio belongs to `TCATGAACAC` ?
Resp: 1.01

Req: API: value(readout= switch fluorescence ratio, system= ATP, query= `GTGGGAATTA` );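 further: ATP exposure 15 min at 22 °C before imaging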
Resp: 0.996

Req: Look up switch fluorescence ratio with ATP for this sequence: `TTAATTCATT`
Resp: 1.01

Req: Entry `GTTTCTCATC` , system ATP: what switch fluorescence ratio was measured?;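 further: ATP exposure 15 min at 22 °C before imaging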
Resp: 1.02

* * *

System: ATP;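 further: ATP exposure 15 min at 22 °C before imaging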
Assay: switch fluorescence ratio, 500 uM ATP over buffer (Cy3 cluster intensity, sum of 5 cycles each) (fold (ratio)); higher = stronger signal-on switching upon ATP binding; sequences stand for … in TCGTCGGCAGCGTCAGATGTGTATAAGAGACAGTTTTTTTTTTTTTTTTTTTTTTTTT…TC
Conditions: aptamer strand: ATP DNA aptamer (quencher-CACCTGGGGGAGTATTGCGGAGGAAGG + anchor), 100 nM annealed; ATP concentration: 500 uM
# cutoff 1 applies to switch fluorescence ratio; >= gives 1, < gives 0

Req: Answer whether switch fluorescence ratio of `CATGGTGAGC` is greater than or equal to 1.
Resp: 0

Req: # check: switch fluorescence ratio of `GGGCATTTAG` is greater than or equal to 1
Resp: 1

Req: Please check the record `ACTGTAATGT` and state if its switch fluorescence ratio is at or above 1.
Resp: 1

Req: Identify whether the reported switch fluorescence ratio of the following sequence is 1 or greater: `AGGATAACCG`
Resp: 1

Req: Record `CGTTGGTGGC` ; criterion: switch fluorescence ratio no lower than 1. Met?
Resp: 0

Req: Please indicate if the recorded switch fluorescence ratio for `GAGAACATGG` meets or exceeds 1.
Resp: 1

Req: Evaluate `TGTGATTTCG` : switch fluorescence ratio at minimum 1?
Resp: 0

Req: Please check the record `GGTCGGGGTG` and state if its switch fluorescence ratio is at or above 1.
Resp: 1

* * *

Test system: ATP;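 further: ATP exposure 15 min at 22 °C before imaging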
Test: switch fluorescence ratio, 500 uM ATP over buffer (Cy3 cluster intensity, sum of 5 cycles each) (fold (ratio)); higher = stronger signal-on switching upon ATP binding; sequences stand for … in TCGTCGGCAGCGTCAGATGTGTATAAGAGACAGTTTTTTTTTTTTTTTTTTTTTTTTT…TC
Details: aptamer strand: ATP DNA aptamer (quencher-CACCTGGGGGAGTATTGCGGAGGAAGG + anchor), 100 nM annealed; ATP concentration: 500 uM
I'd be grateful if you could share measured switch fluorescence ratio for these entries.
Respond using a number only.

Req: State the recorded switch fluorescence ratio for this entry: `TGCGGTAAA`
Resp: 1.09

Req: Reported switch fluorescence ratio for `GTGGTCGGCA` : what is it?
Resp: 0.996

Req: Which switch fluorescence ratio is listed for `GGAATGAAGG` ?
Resp: 1

Req: Data request, read-out switch fluorescence ratio, for `CAGGTGGTGT`
Resp: 1.11

Req: I'd like to know its switch fluorescence ratio. The sequence in question is `TTTAGATTGT`
Resp: 1.01

Req: // query switch fluorescence ratio value for entry `GTTGCGGAAT`
Resp: 1.03

Req: Quick one: switch fluorescence ratio for `CGGGGGGGG` ?
Resp: 1

Req: Returns the measured switch fluorescence ratio for the input sequence. Input: `AGGGGGCGTT`
Resp: 1.02

Req: Data request, read-out switch fluorescence ratio, for `TTTAATTGTG`
Resp: 0.989

Req: Fill in the blank: the reported switch fluorescence ratio of `ATTGCGGCAC` is ____.
Resp: 1.05

Req: Given the entry `GTAAATGGGG` , report its measured switch fluorescence ratio.
Resp: 0.975

Req: What switch fluorescence ratio value was documented for this sequence, `GGGGCACCTC` ?
Resp: 1.04

Req: // query switch fluorescence ratio value for entry `GTTGAGGTCG`
Resp: 0.995

Req: Reported switch fluorescence ratio, sequence `AAATTATCCA` : ____
Resp: 1.02

Req: Quick one: switch fluorescence ratio of `GTAGTAGGGA` ?
Resp: 1.01

* * *

What switch fluorescence ratio was measured for each of the following?
Test system: ATP;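 further: ATP exposure 15 min at 22 °C before imaging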
Assay: switch fluorescence ratio, 500 uM ATP over buffer (Cy3 cluster intensity, sum of 5 cycles each) (fold (ratio)); higher = stronger signal-on switching upon ATP binding; sequences stand for … in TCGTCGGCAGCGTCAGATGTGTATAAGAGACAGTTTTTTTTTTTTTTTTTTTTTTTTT…TC
Conditions: aptamer strand: ATP DNA aptamer (quencher-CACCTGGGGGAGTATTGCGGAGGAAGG + anchor), 100 nM annealed; ATP concentration: 500 uM
Please reply with the value in numeric form only.

Req: What does the record list as switch fluorescence ratio for `GGGACACGA` ?
Resp: 0.988

Req: Query (sequence): `AAAGGTGTTG` ; field requested: switch fluorescence ratio
Resp: 1.16

Req: State the recorded switch fluorescence ratio for this entry: `GTGAATGTAT`
Resp: 1.02

* * *

Tested on: ATP;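 further: ATP exposure 15 min at 22 °C before imaging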
Assay: switch fluorescence ratio, 500 uM ATP over buffer (Cy3 cluster intensity, sum of 5 cycles each) (fold (ratio)); higher = stronger signal-on switching upon ATP binding; sequences stand for … in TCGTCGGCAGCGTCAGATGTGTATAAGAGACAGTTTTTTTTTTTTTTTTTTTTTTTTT…TC
Details: aptamer strand: ATP DNA aptamer (quencher-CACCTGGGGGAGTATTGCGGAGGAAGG + anchor), 100 nM annealed; ATP concentration: 500 uM
assay endpoint: switch fluorescence ratio
When you answer, write just the number.

Req: Please give the measured switch fluorescence ratio for this sequence: `TCTAGTCGAA`
Resp: 1.02

Req: Fill in: switch fluorescence ratio of `GGTTGTCTCG` is ___
Resp: 0.951

Req: Which switch fluorescence ratio is listed for `GAATGCTCAC` ?
Resp: 1.14

Req: Item `CTAAGGGTTC` has what recorded switch fluorescence ratio?
Resp: 0.999

Req: For the sequence `TGGGGGAAGC` , what switch fluorescence ratio is on record?
Resp: 0.984

Req: Consider the sequence `ATGATTAGCT` and give its measured switch fluorescence ratio.
Resp: 1

Req: Returns the measured switch fluorescence ratio for the input sequence. Input: `GTGAAAATTT`
Resp: 1.07

Req: Recorded switch fluorescence ratio of `GCAGCAAGCG` , please.
Resp: 1.64

Req: Can you look up the measured switch fluorescence ratio of `TTGTGTTATC` for me?
Resp: 1.01

Req: Look at this sequence and give its reported switch fluorescence ratio. `TTGTATGATT`
Resp: 1.01

Req: What does the data say about its switch fluorescence ratio? Entry: `TTGCTAAAAA`
Resp: 1.04

* * *

Test system: ATP;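 further: ATP exposure 15 min at 22 °C before imaging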
Test: switch fluorescence ratio, 500 uM ATP over buffer (Cy3 cluster intensity, sum of 5 cycles each) (fold (ratio)); higher = stronger signal-on switching upon ATP binding; sequences stand for … in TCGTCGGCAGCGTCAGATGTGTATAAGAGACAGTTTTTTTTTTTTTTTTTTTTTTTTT…TC
Settings: aptamer strand: ATP DNA aptamer (quencher-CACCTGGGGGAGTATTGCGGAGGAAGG + anchor), 100 nM annealed; ATP concentration: 500 uM
assay endpoint: switch fluorescence ratio

Req: What value of switch fluorescence ratio has been reported for the following sequence? `GGGGGCGCAT`
Resp: 0.96

Req: Value lookup for switch fluorescence ratio; key = `CAGTGGGCGT`
Resp: 1.04

Req: For `GTAAAAACTC` , what is its reported switch fluorescence ratio?
Resp: 1.03

Req: Request the reported switch fluorescence ratio associated with `GTTGGGATGT`
Resp: 0.996

Req: // query switch fluorescence ratio value for entry `TACGGCTGGT`
Resp: 1.01

Req: Request the reported switch fluorescence ratio associated with `AAGGAGCTGA`
Resp: 0.991
